Parameter: % cleavage Matriptase t = 15 min. Scope: all listed entries.
assay.target: matriptase (Homo sapiens)
Construct: purchased R&D Systems 3946-SEB
Sequence (Q9Y5Y6 615-855 limits assumed): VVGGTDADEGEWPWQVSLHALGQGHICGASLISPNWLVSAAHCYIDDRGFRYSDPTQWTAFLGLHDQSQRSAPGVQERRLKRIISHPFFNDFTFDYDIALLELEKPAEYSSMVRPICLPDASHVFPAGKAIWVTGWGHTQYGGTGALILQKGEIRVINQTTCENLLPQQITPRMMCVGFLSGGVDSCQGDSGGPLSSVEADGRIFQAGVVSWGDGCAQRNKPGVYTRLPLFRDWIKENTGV
test.description: FRET peptide cleavage efficiency with matriptase
Type: biochemical
condition.details: t = 15 min; 200 uM linker, 1 ug/ml protease, 37° C., buffer B pH 9.0
Square brackets hold non-standard residues; d marks the D form. Ends that are not written are not given here. Tyr(3-NO2) = N[C@@H](Cc1ccc(O)c([N+](=O)[O-])c1)C(=O)O; 2Abz = Nc1ccccc1C(=O)O

>  <substance>
SSRGRRGPYMLQG ([2Abz]SSRGRRGPYMLQG[Tyr(3-NO2)]-NH2) [LNK021]

>  <% cleavage Matriptase t = 15 min [%]>
100

$$$$
>  <substance>
SGRVLRKAGPAGLVG ([2Abz]SGRVLRKAGPAGLVG[Tyr(3-NO2)]-NH2) [LNK013]

>  <% cleavage Matriptase t = 15 min [%]>
99

$$$$
>  <substance>
RGRRPLGLAG ([2Abz]RGRRPLGLAG[Tyr(3-NO2)]-NH2) [LNK049]

>  <% cleavage Matriptase t = 15 min [%]>
16

$$$$
>  <substance>
SGRVANLVG (not fully specified (N-terminus, C-terminus)) [LNK017]

>  <% cleavage Matriptase t = 15 min [%]>
29

$$$$
>  <substance>
SSQYSSPG ([2Abz]SSQYSSPG[Tyr(3-NO2)]-NH2) [LNK069]

>  <% cleavage Matriptase t = 15 min [%]>
0

$$$$
>  <substance>
SGRVLPAGLVG ([2Abz]SGRVLPAGLVG[Tyr(3-NO2)]-NH2) [LNK007]

>  <% cleavage Matriptase t = 15 min [%]>
23

$$$$
>  <substance>
RYGKSAPLGLAG ([2Abz]RYGKSAPLGLAG[Tyr(3-NO2)]-NH2) [LNK027]

>  <% cleavage Matriptase t = 15 min [%]>
99

$$$$
>  <substance>
SGRVLTLRKAALPLAM ([2Abz]SGRVLTLRKAALPLAM[Tyr(3-NO2)]-NH2) [LNK020]

>  <% cleavage Matriptase t = 15 min [%]>
98

$$$$
>  <substance>
RRLNYSL ([2Abz]RRLNYSL[Tyr(3-NO2)]-NH2) [LNK074]

>  <% cleavage Matriptase t = 15 min [%]>
2

$$$$
>  <substance>
SGRVAGLVG ([2Abz]SGRVAGLVG[Tyr(3-NO2)]-NH2) [LNK016]

>  <% cleavage Matriptase t = 15 min [%]>
22

$$$$
>  <substance>
RQRRSAAPLGLAG ([2Abz]RQRRSAAPLGLAG[Tyr(3-NO2)]-NH2) [LNK028]

>  <% cleavage Matriptase t = 15 min [%]>
97

$$$$
>  <substance>
SGRVANYFGKL ([2Abz]SGRVANYFGKL[Tyr(3-NO2)]-NH2) [LNK054]

>  <% cleavage Matriptase t = 15 min [%]>
0

$$$$
>  <substance>
RSSYRSL ([2Abz]RSSYRSL[Tyr(3-NO2)]-NH2) [LNK075]

>  <% cleavage Matriptase t = 15 min [%]>
8

$$$$
>  <substance>
RGRRHSSKLQPLGYFGKL ([2Abz]RGRRHSSKLQPLGYFGKL[Tyr(3-NO2)]-NH2) [LNK062]

>  <% cleavage Matriptase t = 15 min [%]>
66

$$$$
